The measured values listed here are drawn from ChEMBL document CHEMBL4513216.

- Measurement Protocol: Toxicity liver stage against HepG2, at 10uM
- Assay type: cell-based
- Design: test concentration 10 uM, cell line HepG2-A16-CD81EGFP
- Experimental Setup: human, HepG2-A16-CD81EGFP cells; read-out: INHIBITION
Measured Attribute: cytotoxicity at 10 µM (%)
// return numeric value only (unit: %, not printed)

molecule "Cc1ncnc2c1CCN(Cc1ccccn1)CC2" , cytotoxicity at 10 µM observed: -10.4

molecule "Cc1nc(CN2C[C@@H]3CN(C(=O)CC(F)(F)F)C[C@@H]3C2=O)cs1" , cytotoxicity at 10 µM observed: -73.5

molecule "Cn1ccc(C(=O)N2CCN(c3ncccn3)CC2)cc1=O" , cytotoxicity at 10 µM observed: -11.6

molecule "Cn1nccc1C(=O)N1CCCN(CCCc2ccccc2)CC1" , cytotoxicity at 10 µM observed: -2.45

molecule CCc1ncncc1C(=O)N1CCOC(c2nc(C)n[nH]2)C1 (stereo not given) , cytotoxicity at 10 µM observed: 0.842

molecule "Cc1nc(N2CCOCC2)nc2c1CN(C(=O)Cc1ccccn1)CC2" , cytotoxicity at 10 µM observed: -7.61

molecule "Cn1cc(-c2ccnc(NCC3CC3)n2)cn1" , cytotoxicity at 10 µM observed: -134

molecule Cc1cc(C2CCCN2Cc2nc3ccccc3o2)on1 (stereo not given) , cytotoxicity at 10 µM observed: -17

molecule O=c1[nH]c2c(c(=O)n1C1CCCCC1)CCC2Nc1ccccn1 (stereo not given) , cytotoxicity at 10 µM observed: -8.02

molecule CCn1ccnc1C1CCCN(C(=O)c2sc(C)nc2C)C1 (stereo not given) , cytotoxicity at 10 µM observed: 1.24

molecule O=C(NCC(O)(c1cccs1)C1CC1)NC1CCCCC1 (stereo not given) , cytotoxicity at 10 µM observed: -2.25

molecule "Cn1nc2c(cc1=O)CN(Cc1nc(N)c3ccccc3n1)CC2" , cytotoxicity at 10 µM observed: -8.86

molecule "O=S(=O)(N1CCCC1)N1CCc2sccc2C1" , cytotoxicity at 10 µM observed: 1.7

molecule "COc1ccc(CN2CCC3(CC2)CN(c2ccccn2)CCO3)cc1" , cytotoxicity at 10 µM observed: 2.87

molecule "CCCc1ccc(S(=O)(=O)Nc2ccc(=O)n(C)c2)cc1" , cytotoxicity at 10 µM observed: 43.5

molecule "CN(C)C(C)(C)CNCc1cn(C)nc1-c1cccnc1" , cytotoxicity at 10 µM observed: 11.8

molecule "N#Cc1ccc(Oc2cc(F)c(CN3CCCC3)c(F)c2)nc1" , cytotoxicity at 10 µM observed: -8.74

molecule COc1ccccc1CC1CCCN(CCC(N)=O)C1 (stereo not given) , cytotoxicity at 10 µM observed: -5.06

molecule c1ccc(C(CC2CN(Cc3ncc[nH]3)CCO2)c2ccccc2)cc1 (stereo not given) , cytotoxicity at 10 µM observed: -0.73

molecule "N#Cc1ncn(CCC(=O)Nc2ccccc2F)n1" , cytotoxicity at 10 µM observed: -150

molecule "CCSc1nc2ccccc2c(=O)n1OCC(=O)OC" , cytotoxicity at 10 µM observed: -5.49

molecule Cc1ccc(C(=O)N2CCn3c(COCC4CC4)cnc3C2C)nc1 (stereo not given) , cytotoxicity at 10 µM observed: 3.58

molecule "O=C(CCN1CCCC1=O)NCc1cccnc1Oc1ccccc1" , cytotoxicity at 10 µM observed: -7.47

molecule "CN(C)CCn1c2c(ccc1=O)CCN(C(=O)c1ccoc1)CC2" , cytotoxicity at 10 µM observed: 6.2

molecule "Cc1ccc(CNC(=O)C2CCN(C(=O)C(C)C)CC2)n1C" , cytotoxicity at 10 µM observed: 5.71
